biological target: Estrogen receptor (Homo sapiens) (UniProt P03372); experiment: qHTS assay to identify small molecule agonists of the estrogen receptor alpha (ER-alpha) signaling pathway (AID 743075); settings: HEK293 ER-alpha-UAS-bla, beta-lactamase FRET ratio, 18 h; series mostly up to 70.1 µM;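 note: HEK293 GripTite cells with ER-alpha and UAS-driven beta-lactamase reporter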
Sequence (P03372 whole entry, looked up): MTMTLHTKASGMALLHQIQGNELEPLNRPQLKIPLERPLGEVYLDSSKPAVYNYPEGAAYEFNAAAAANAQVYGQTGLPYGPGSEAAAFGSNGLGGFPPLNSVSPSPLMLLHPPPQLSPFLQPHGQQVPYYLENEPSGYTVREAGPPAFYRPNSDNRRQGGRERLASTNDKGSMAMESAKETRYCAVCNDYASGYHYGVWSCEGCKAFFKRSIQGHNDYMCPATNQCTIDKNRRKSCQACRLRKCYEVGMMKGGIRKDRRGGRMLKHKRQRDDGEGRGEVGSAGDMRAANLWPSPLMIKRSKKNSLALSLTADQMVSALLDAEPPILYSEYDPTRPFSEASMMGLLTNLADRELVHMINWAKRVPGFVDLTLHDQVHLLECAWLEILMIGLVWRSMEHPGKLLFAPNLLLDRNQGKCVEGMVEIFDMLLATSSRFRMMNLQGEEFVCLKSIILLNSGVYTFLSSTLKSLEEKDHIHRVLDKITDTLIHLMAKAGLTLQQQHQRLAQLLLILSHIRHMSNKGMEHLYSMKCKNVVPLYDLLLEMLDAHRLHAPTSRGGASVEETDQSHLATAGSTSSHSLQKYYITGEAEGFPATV
The source made the active and inactive calls. Calls come from the whole dose curve.
Answer with one of the outcomes active, inactive

Examples with answers:
>>> assigned_label("Cc1ccc2c(c1N)C(=O)c1ccccc1C2=O")
"active"
>>> assigned_label("CCCCCCOC(=O)c1ccccc1C(=O)OCCCCCC")
"inactive"
>>> assigned_label("Clc1nc(Cl)nc(Cl)n1")
"inactive"
>>> assigned_label("CC(C)C(=O)OCC(C)(C)C(OC(=O)C(C)C)C(C)C (stereo not given)")
"active"
>>> assigned_label("Brc1ccc(Oc2cc(Br)c(Br)cc2Br)c(Br)c1")
"inactive"
>>> assigned_label("CCc1cccc(CC)c1N(COC)C(=O)CCl")
"inactive"

Task: Each compound tested received a call. Report the one for COC(=O)c1sccc1S(=O)(=O)NC(=O)Nc1nc(C)nc(OC)n1 .
Result: inactive

Task: Each compound tested received a call. Report the one for CCCCCCCCCCCOC(=O)c1ccccc1C(=O)OCCCCCCCCCCC .
Result: inactive

Task: Each compound tested received a call. Report the one for NNC(=S)NN .
Result: inactive

Task: Each compound tested received a call. Report the one for CC(C)Oc1cc(-n2nc(C(C)(C)C)oc2=O)c(Cl)cc1Cl .
Result: inactive

Task: Each compound tested received a call. Report the one for NCc1cccnc1 .
Result: inactive

Task: Each compound tested received a call. Report the one for COP(=O)(OC)OC .
Result: inactive

Task: Each compound tested received a call. Report the one for CCCCCCCCOC(=O)c1ccccc1C(=O)OCCCCCCCC .
Result: inactive

Task: Each compound tested received a call. Report the one for CCOC(=O)C(C)OC(=O)c1cc(Oc2ccc(C(F)(F)F)cc2Cl)ccc1[N+](=O)[O-] (stereo not given) .
Result: inactive

Task: Each compound tested received a call. Report the one for CC1(C)C(C=C(Cl)Cl)C1C(=O)OC(C#N)c1cccc(Oc2ccccc2)c1 (stereo not given) .
Result: inactive

Task: Each compound tested received a call. Report the one for c1ccc(-c2cccc(-c3ccccc3)c2)cc1 .
Result: inactive
